Tested on: HeLa
Assay: Antiviral activities in a cell culture HIV-1 infectivity inhibition assay using HeLa cells plus 50% normal human serum
Assay type: functional
Each record here notes measured IC90.
OUTCOME MEASURE: IC90 (µM)

>>> print(df.to_string())
                     structure_smiles_string  unit_of_measure  reported_value
 0  CC[C@@H](C)[C@H](C(=O)O)N1C[C@H](CN2CCC(c3cc(Cc4ccc(OC(C)(C)C)cc4)nn3CC)CC2)[C@@H](c2cccc(F)c2)C1               µM          0.0037
 1  CCCCOc1ccc(Cc2cc(C3CCN(C[C@H]4CN([C@@H](C(=O)O)[C@H](C)CC)C[C@@H]4c4cccc(F)c4)CC3)n(CC)n2)cc1               µM             0.1
 2  CC[C@H](C)[C@H](C(=O)O)N1C[C@H](CN2CCC(c3cc(Cc4cccc(C#N)c4)nn3CC)CC2)[C@@H](c2cccc(F)c2)C1               µM           0.011
 3  CC[C@@H](C)[C@H](C(=O)O)N1C[C@H](CN2CCC(c3cc(Cc4ccc(-c5ccccc5)cc4)nn3CC)CC2)[C@@H](c2cccc(F)c2)C1               µM             0.3
 4  CCn1nc(Cc2ccccc2)cc1C1CCN(C[C@H]2CN([C@@H](C(=O)O)C(C)C)C[C@@H]2c2cccc(F)c2)CC1               µM             0.3
 5  CC[C@@H](C)[C@H](C(=O)O)N1C[C@H](CN2CCC(c3cc(Cc4ccc5ccccc5c4)nn3CC)CC2)[C@@H](c2cccc(F)c2)C1               µM             0.3
 6  CC[C@H](C)[C@H](C(=O)O)N1C[C@H](CN2CCC(c3cc(Cc4ccc(Oc5ccccc5)cc4)nn3CC)CC2)[C@@H](c2cccc(F)c2)C1               µM             0.1
 7  CC[C@@H](C)[C@H](C(=O)O)N1C[C@H](CN2CCC(c3cc(Cc4ccc(OC(F)(F)F)cc4)nn3CC)CC2)[C@@H](c2cccc(F)c2)C1               µM             0.1
 8  CCn1nc(Cc2ccc3c(c2)OCO3)cc1C1CCN(C[C@H]2CN([C@@H](C(=O)O)C(C)(C)C)C[C@@H]2c2cccc(F)c2)CC1               µM           0.033
 9  CCn1nc(Cc2ccccc2)cc1C1CCN(C[C@H]2CN([C@@H](C(=O)O)C(C)(C)C)C[C@@H]2c2cccc(F)c2)CC1               µM             0.1
10  CCOc1ccc(Cc2cc(C3CCN(C[C@H]4CN([C@@H](C(=O)O)[C@H](C)CC)C[C@@H]4c4cccc(F)c4)CC3)n(CC)n2)cc1F               µM           0.033
11  CCCCOc1ccc(Cc2cc(C3CCN(C[C@H]4CN([C@@H](C(=O)O)C(C)(C)C)C[C@@H]4c4cccc(F)c4)CC3)n(CC)n2)cc1               µM           0.033
12  CCOc1ccc(Cc2cc(C3CCN(C[C@H]4CN([C@@H](C(=O)O)C(C)(C)C)C[C@@H]4c4cccc(F)c4)CC3)n(CC)n2)cc1               µM           0.033
13  CCCCOc1ccc(Cc2cc(C3CCN(C[C@H]4CN([C@@H](C(=O)O)[C@@H](C)CC)C[C@@H]4c4cccc(F)c4)CC3)n(CC)n2)cc1               µM           0.011
14  CCn1nc(Cc2cc(F)cc(F)c2)cc1C1CCN(C[C@H]2CN([C@@H](C(=O)O)C3CCCCC3)C[C@@H]2c2cccc(F)c2)CC1               µM           0.011
15  CC[C@H](C)[C@H](C(=O)O)N1C[C@H](CN2CCC(c3cc(Cc4ccc(OC5CCC5)cc4)nn3CC)CC2)[C@@H](c2cccc(F)c2)C1               µM           0.011
16  CCOc1ccc(Cc2cc(C3CCN(C[C@H]4CN([C@@H](C(=O)O)C5CCCCC5)C[C@@H]4c4cccc(F)c4)CC3)n(CC)n2)cc1               µM           0.033
17  CCn1nc(Cc2ccccc2F)cc1C1CCN(C[C@H]2CN([C@@H](C(=O)O)C3CCCCC3)C[C@@H]2c2cccc(F)c2)CC1               µM           0.033
18  CC[C@@H](C)[C@H](C(=O)O)N1C[C@H](CN2CCC(c3cc(Cc4ccc(OCc5ccccc5)cc4)nn3CC)CC2)[C@@H](c2cccc(F)c2)C1               µM             0.1
19  CCn1nc(Cc2ccc(OC(C)(C)C)cc2)cc1C1CCN(C[C@H]2CN([C@@H](C(=O)O)C(C)(C)C)C[C@@H]2c2cccc(F)c2)CC1               µM             0.3
20  CC[C@H](C)[C@H](C(=O)O)N1C[C@H](CN2CCC(c3cc(CC4CCCCC4)nn3CC)CC2)[C@@H](c2cccc(F)c2)C1               µM             0.3
21  CC[C@@H](C)[C@H](C(=O)O)N1C[C@H](CN2CCC(c3cc(Cc4ccc(Oc5ccccc5)cc4)nn3CC)CC2)[C@@H](c2cccc(F)c2)C1               µM             0.3
22  CCn1nc(Cc2ccc(S(=O)(=O)c3ccccc3)cc2)cc1C1CCN(C[C@H]2CN([C@@H](C(=O)O)C(C)(C)C)C[C@@H]2c2cccc(F)c2)CC1               µM          0.0037
23  CCn1nc(Cc2ccc(Oc3ccccc3)cc2)cc1C1CCN(C[C@H]2CN([C@@H](C(=O)O)C(C)(C)C)C[C@@H]2c2cccc(F)c2)CC1               µM             0.3
24  CC[C@H](C)[C@H](C(=O)O)N1C[C@H](CN2CCC(c3cc(Cc4ccc(OCC(F)(F)F)cc4)nn3CC)CC2)[C@@H](c2cccc(F)c2)C1               µM           0.033
25  CCOc1ccc(Cc2cc(C3CCN(C[C@H]4CN([C@@H](C(=O)O)C(C)C)C[C@@H]4c4cccc(F)c4)CC3)n(CC)n2)cc1F               µM             0.1

* * *

System: HeLa
Experiment: Antiviral activities in a cell culture HIV-1 infectivity inhibition assay using HeLa cells plus 50% normal human serum
Format: functional
Reported values of IC90 for individual entries
OUTCOME MEASURE: IC90 (nM)

>>> print(df.to_string())
                    structure_smiles_string  reported_value
0  CCn1nc(Cc2ccc(S(C)(=O)=O)cc2)cc1C1CCN(C[C@H]2CN([C@@H](C(=O)O)C(C)C)C[C@@H]2c2cccc(F)c2)CC1              33
1  CCn1nc(Cc2ccc(C#N)cc2)cc1C1CCN(C[C@H]2CN([C@@H](C(=O)O)C(C)C)C[C@@H]2c2cccc(F)c2)CC1             100
2  CC[C@@H](C)[C@H](C(=O)O)N1C[C@H](CN2CCC(c3cc(Cc4ccc(C(C)(C)C)cc4)nn3CC)CC2)[C@@H](c2cccc(F)c2)C1             300
3  CCn1nc(Cc2ccc(OC3CCC3)cc2)cc1C1CCN(C[C@H]2CN([C@@H](C(=O)O)C(C)(C)C)C[C@@H]2c2cccc(F)c2)CC1              33

* * *

System: HeLa
Assay: Antiviral activities in a cell culture HIV-1 infectivity inhibition assay using HeLa cells plus 50% normal human serum
Assay type: functional
OUTCOME MEASURE: IC90

>>> print(df.to_string())
                    structure_smiles_string  reported_value
0  CC[C@H](C)[C@H](C(=O)O)N1C[C@H](CN2CCC(c3cc(Cc4ccc5ccccc5c4)nn3CC)CC2)[C@@H](c2cccc(F)c2)C1          300 nM
1  CC[C@@H](C)[C@H](C(=O)O)N1C[C@H](CN2CCC(c3cc(Cc4cccc5ccccc45)nn3CC)CC2)[C@@H](c2cccc(F)c2)C1           33 nM
2  CCn1nc(Cc2ccc(F)cc2F)cc1C1CCN(C[C@H]2CN([C@@H](C(=O)O)C(C)C)C[C@@H]2c2cccc(F)c2)CC1        > 300 nM
3  CCn1nc(Cc2ccc(OC)c(C#N)c2)cc1C1CCN(C[C@H]2CN([C@@H](C(=O)O)C(C)(C)C)C[C@@H]2c2cccc(F)c2)CC1           33 nM
